The origin of these recorded values is paper PMC7570694.

target.under.test: AChE (Electrophorus electricus, UniProt O42275)
Sequence (O42275 24-633): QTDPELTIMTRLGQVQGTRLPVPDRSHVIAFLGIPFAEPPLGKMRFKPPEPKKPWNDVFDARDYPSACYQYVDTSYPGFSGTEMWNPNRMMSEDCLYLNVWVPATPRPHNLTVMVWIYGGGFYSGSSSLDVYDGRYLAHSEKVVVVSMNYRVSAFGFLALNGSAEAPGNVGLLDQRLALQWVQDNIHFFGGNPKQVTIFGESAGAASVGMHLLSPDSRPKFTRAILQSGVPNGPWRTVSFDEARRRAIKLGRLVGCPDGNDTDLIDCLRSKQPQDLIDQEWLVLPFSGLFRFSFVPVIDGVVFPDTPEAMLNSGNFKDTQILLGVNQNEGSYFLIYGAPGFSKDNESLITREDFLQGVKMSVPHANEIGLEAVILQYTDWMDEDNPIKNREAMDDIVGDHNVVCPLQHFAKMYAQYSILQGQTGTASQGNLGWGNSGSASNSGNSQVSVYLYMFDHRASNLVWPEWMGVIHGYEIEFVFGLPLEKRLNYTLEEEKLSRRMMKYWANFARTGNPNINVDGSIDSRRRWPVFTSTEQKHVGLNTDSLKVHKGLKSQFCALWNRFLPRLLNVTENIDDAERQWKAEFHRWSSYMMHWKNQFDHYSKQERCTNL
test.description: AChE inhibition, modified Ellman spectrophotometric method
Type: biochemical
test.parameters: read-out: AChE % Inhibition 10^-5 M
property: inhibition at 10 µM (%)
Give bare numbers, in %.

Record inhibition at 10 µM per entry; entries follow.
1. COc1cccc(C=NNc2nc(-c3ccc(C(F)(F)F)cc3)cs2)c1
2. COc1ccc(C=NNc2nc(-c3ccc(C(F)(F)F)cc3)cs2)cc1OC

1: 81.8; 2: 81.5

List reported inhibition at 10 µM for each of these molecules:
1. COc1ccccc1C=NNc1nc(-c2ccc(C(F)(F)F)cc2)cs1
2. Oc1cccc(C=NNc2nc(-c3ccc(C(F)(F)F)cc3)cs2)c1

1. 78.1
2. 81.2
